All values here come from the Deep4Chem optical property database.

# method.notes: solvent given as SMILES
# condition.info: in Cc1ccccc1
Output condition met for records whose emission maximum is lower than 500 nm, condition not met for records at or above 500 nm.

Query: Given CC(C)(C)c1ccc2c(c1)B1c3cc(C(C)(C)C)ccc3Oc3cc(N4c5ccccc5C(C)(C)c5ccccc54)cc(c31)O2 , is recorded emission maximum strictly lower than 500 nm?
Result: condition met

Query: Given Cc1cc(C)c(B(c2cc3ccc4cccc5ccc(c2)c3c45)c2c(C)cc(C)cc2C)c(C)c1 , is recorded emission maximum strictly lower than 500 nm?
Result: condition met

Query: Given COc1cc2c3c4c(c5ccc(C(C)(C)C)cc5c5c(OC)c(OC)c(OC)c(c2c(OC)c1OC)c45)=[N+]1C3=Nc2c3c4cc(OC)c(OC)c(OC)c4c4c(OC)c(OC)c(OC)c5c6cc(C(C)(C)C)ccc6c(c3c54)n2[B-]1(F)F , is recorded emission maximum strictly lower than 500 nm?
Result: condition not met

Query: Given CC1(C)Nc2ccccc2-c2[nH]c3ccccc3c(=O)c21 , is recorded emission maximum strictly lower than 500 nm?
Result: condition met

Query: Given COc1ccc(/C=C/c2cc(/C=C/c3ccc(OC)cc3)nc(/C=C/c3ccc(N(c4ccccc4)c4ccccc4)cc3)n2)cc1 , is recorded emission maximum strictly lower than 500 nm?
Result: condition met

Query: Given Cc1cc(C)n2c1C=C1c3ccccc3C(c3c[nH]c4ccccc34)=[N+]1[B-]2(F)F , is recorded emission maximum strictly lower than 500 nm?
Result: condition not met

Query: Given CCC/N=C/c1cc2ccc(N(C)C)cc2cc1OC , is recorded emission maximum strictly lower than 500 nm?
Result: condition met

Query: Given c1ccc(-c2nc(-c3ccccc3)nc(-c3ccc(-n4c5ccccc5c5cc6c(cc54)c4ccccc4n6-c4ccccc4)cc3)n2)cc1 , is recorded emission maximum strictly lower than 500 nm?
Result: condition met

Query: Given CCCCCCCCCCCCn1cccc1/C=C/c1ccc(/C=C/c2cccn2CCCCCCCCCCCC)cc1 , is recorded emission maximum strictly lower than 500 nm?
Result: condition met

Query: Given CC(C)(C)c1ccc(-c2sc3c(-c4ccc(C(C)(C)C)cc4)c4n(c3c2-c2ccc(C(C)(C)C)cc2)[B-](F)(F)[N+]2=Cc3c(-c5ccc(C(C)(C)C)cc5)c5sc(-c6ccc(C(C)(C)C)cc6)c(-c6ccc(C(C)(C)C)cc6)c5n3[B-](F)(F)[N+]2=C4)cc1 , is recorded emission maximum strictly lower than 500 nm?
Result: condition not met

Query: Given Cc1ccc2c(c1)C1(c3ccccc3Oc3ccccc31)c1cc(C)ccc1N2c1ccc(-c2ncccn2)cc1 , is recorded emission maximum strictly lower than 500 nm?
Result: condition met

###

# method.notes: solvent given as SMILES
# condition.info: in CCO
assay.endpoint: emission maximum (nm)
Number in nm, nothing else.

Query: # get_value(readout='emission maximum', item= CC1=CC(C)=[N+]2C1=C(c1c3ccccc3cc3ccccc13)c1c(C)cc(C)n1[B-]2(F)F )
Result: 513

Query: # get_value(readout='emission maximum', item= O=CC1=C(c2ccc(-c3cccs3)s2)CC1 )
Result: 516

Query: # get_value(readout='emission maximum', item= CN(C)c1cccc2c1C(=O)c1ccccc1-2 )
Result: 541

Query: # get_value(readout='emission maximum', item= COc1ccc2cc([C@H](C)C(=O)O)ccc2c1 )
Result: 352.3

Query: # get_value(readout='emission maximum', item= CCC1=C(C)C2=Cc3c(I)c(I)cn3[B-](F)(F)[N+]2=C1C )
Result: 541.5

Query: # get_value(readout='emission maximum', item= N#Cc1cccc2c(N)c(-c3nn([C@H]4C[C@H](O)[C@@H](CO)O4)c4ncnc(N)c34)ccc12 )
Result: 520

Query: # get_value(readout='emission maximum', item= CN1C(=O)/C(=C/c2ccncc2)N=C1/C=C/c1ccccc1 )
Result: 550

Query: # get_value(readout='emission maximum', item= CC[N+](CC)=c1ccc2c(-c3ccccc3C(=O)O)c3c(=O)oc4cc5c(cc4c3oc-2c1)CCCN5C )
Result: 651

Query: # get_value(readout='emission maximum', item= CN(C)c1ccc(/C=C2\CCCC2=O)cc1 )
Result: 480

Query: # get_value(readout='emission maximum', item= CCOC(=O)/C=C/c1cc2ccc(O)cc2oc1=O )
Result: 430

Query: # get_value(readout='emission maximum', item= O=Cc1ccc(-c2cccc(-c3nc4ccccc4s3)c2O)s1 )
Result: 576

Query: # get_value(readout='emission maximum', item= Cc1nc2cc3c4c(cccc4c2o1)C(=O)OC3=O )
Result: 412

Query: # get_value(readout='emission maximum', item= COc1ccc(/C=N/c2cc(C(C)C)c(O)cc2C)cc1 )
Result: 414

Query: # get_value(readout='emission maximum', item= CC(=O)OC[C@@H]1O[C@H](n2cnc3c2N=CN2Cc4c[n+](C)c(C)nc4N=C32)[C@@H](O)[C@H]1O )
Result: 416

Query: # get_value(readout='emission maximum', item= CN(C)c1ccc(-c2cc[n+](C)cc2)s1 )
Result: 507

Query: # get_value(readout='emission maximum', item= O=[N+]([O-])c1ccc(NCCN(Cc2c3ccccc3cc3ccccc23)c2ccc([N+](=O)[O-])cc2[N+](=O)[O-])c([N+](=O)[O-])c1 )
Result: 388

Query: # get_value(readout='emission maximum', item= CCOc1cc2c(cc1/C=C/C(=C(C#N)C#N)c1ccccc1)c1ccccc1n2CC )
Result: 575

Query: # get_value(readout='emission maximum', item= Cc1c(C)n2c(COC(=O)c3ccc(F)cc3)c(C)c(=O)n2c1=O )
Result: 460

Query: # get_value(readout='emission maximum', item= N#Cc1ccc(C[C@H](N)C(=O)O)cc1 )
Result: 292.99

Query: # get_value(readout='emission maximum', item= CCC[n+]1ccc(/C=C/c2ccc(N(C)C)cc2)cc1 )
Result: 576

Query: # get_value(readout='emission maximum', item= Nc1ncnc2c1c(-c1ccc3ccccc3c1)nn2[C@H]1C[C@H](O)[C@@H](CO)O1 )
Result: 364

Query: # get_value(readout='emission maximum', item= C[P+]1(c2ccccc2)c2ccccc2-c2sc3ccccc3c21 (configuration not stated) )
Result: 442

###

# method.notes: solvent given as SMILES
# condition.info: in Cc1ccccc1
assay.endpoint: emission maximum (nm)
Number in nm, nothing else.

Query: # get_value(readout='emission maximum', item= Cc1ccc(C2=C3C=CC(C#Cc4ccccc4)=[N+]3[B-](F)(F)n3c(C#Cc4ccccc4)ccc32)cc1 )
Result: 629

Query: # get_value(readout='emission maximum', item= CCCC1=Cc2nc1ccc1[nH]c(cc1CCOC)c1nc(ccc3[nH]c2cc3CCC)C(CCOC)=C1 )
Result: 642

Query: # get_value(readout='emission maximum', item= CC1(C)c2ccccc2N(c2ccc3c(c2)S(=O)(=O)c2cc(N4c5ccccc5C(C)(C)c5ccccc54)ccc2C3(C)C)c2ccccc21 )
Result: 466.12

Query: # get_value(readout='emission maximum', item= CCN1c2ccc(/C=N/Nc3ccccn3)cc2Sc2cc(-c3cccc4ccccc34)ccc21 )
Result: 482

Query: # get_value(readout='emission maximum', item= CCCCN1/C(=C\c2c(-c3ccc(N(C)C)cc3)c(=O)c2=O)C=Cc2ccccc21 )
Result: 435

Query: # get_value(readout='emission maximum', item= CC(C)(C)c1ccc2c(c1)c1cc(C(C)(C)C)ccc1n2-c1cccc(-c2nc(-c3cccc(P(=O)(c4ccccc4)c4ccccc4)c3)nc(-c3cccc(P(=O)(c4ccccc4)c4ccccc4)c3)n2)c1 )
Result: 480.78

Query: # get_value(readout='emission maximum', item= Cc1ccc(N(c2ccc(C)cc2)c2ccc(-c3ccc(-c4ccc(N(c5ccc(C)cc5)c5ccc(C)cc5)cc4)c4nsnc34)cc2)cc1 )
Result: 628

###

# method.notes: solvent given as SMILES
# condition.info: in ClC(Cl)Cl
// label = class 1 if emission maximum is not less than 500 nm, otherwise class 0

Query: Given the entry N#Cc1cc2ccc3cc(C#N)c4ccccc4c3c2c2ccccc12 , answer whether its emission maximum meets or surpasses 500 nm.
Result: class 0

Query: Given the entry CCCCCCCN1C(=CC2=C([O-])C(=CC3=[N+](CCCCCCC)c4ccccc4C3(C)C)C2=C(C#N)C#N)Sc2ccccc21 , answer whether its emission maximum meets or surpasses 500 nm.
Result: class 1

Query: Given the entry CCCCCCCCN1c2ccc(C#Cc3ccc(OC)cc3)cc2Sc2cc(C=O)ccc21 , answer whether its emission maximum meets or surpasses 500 nm.
Result: class 1

Query: Given the entry CCCCN1C(=O)c2cc(Oc3ccc(C(C)(C)C)cc3)c3c4c(Oc5ccc(C(C)(C)C)cc5)c(Oc5ccc(C(C)(C)C)cc5)c5c6c(cc(Oc7ccc(C(C)(C)C)cc7)c(c7c(Oc8ccc(C(C)(C)C)cc8)c(Oc8ccc(C(C)(C)C)cc8)c(c2c37)C1=O)c64)C(=O)N(CCCC)C5=O , answer whether its emission maximum meets or surpasses 500 nm.
Result: class 1

Query: Given the entry CCCCCCCCCCCCCCCCN(CCCCCCCCCCCCCCCC)c1ccc(/C=C/c2cc[n+](Cc3cc(C[n+]4ccc(/C=C/c5ccc(N(CCCCCCCCCCCCCCCC)CCCCCCCCCCCCCCCC)cc5)cc4)cc(C[n+]4ccc(/C=C/c5ccc(N(CCCCCCCCCCCCCCCC)CCCCCCCCCCCCCCCC)cc5)cc4)c3)cc2)cc1 , answer whether its emission maximum meets or surpasses 500 nm.
Result: class 1
